Hello, the source for this data is the supplement of paper PMC7125110, in case you need it.

# kcat annotations
B1: glmS ribozyme (parent)
chain: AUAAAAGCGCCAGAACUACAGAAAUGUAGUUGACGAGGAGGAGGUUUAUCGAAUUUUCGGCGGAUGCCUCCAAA

- Variants of: B1
- Measurement notes: kcat; higher = faster cleavage; RNA array
- Settings: with glucosamine-6-phosphate
This sample holds only a part of the variants without activity.
Measure: kcat (s⁻¹)

G44U U46C | 1.46e-05
C11A C67G | 5.42e-05
C58U C70G | 1.93e-05
U47G G51C U57C C68U | 1.54e-05
A33G C50A | 1.1e-05
U31C U47C | 0.000503
G44C A53C | 6.93e-05
G9A C61U | 0.000168
U57C C70U | 0.00016
C10U | 2.6e-05
C67U C70G | 2.32e-05
